Quick reference: 100 nM FACS (MFI Ratio) of the listed items.
Target: neuropilin-1 (NRP1) on HEK293 cells overexpressing NRP1 (UniProt O14786)
Assay: flow cytometry, HEK293-NRP1 vs HEK293
The answer should be written as a number, with no unit following it.

Example results:
NRP1-44 (VHH) VHH: EVQLVESGGGLVQPGGSLRLSCAASGRSFSTYIMGWFRQAPGKERELVARITSGGYTYADSVKGRFTISADNSKNTAYLQMNSLKPEDTAVYYCAADVSPSYGSRWYWGQGTLVTVSS ... 1.6
NRP1-43 (VHH) VHH: EVQLVESGGGLVQPGGSLRLSCAASGYFASWYYMGWFRQAPGKEREWVATIYSPSGSAVYADSVKGRFTISADNSKNTAYLQMNSLKPEDTAVYYCARDSFYDGSGYSPWGQGTLVTVSS ... 1.5

From here, focus on the item given below.
In: GET /values?readout=100 nM FACS (MFI Ratio)&item= NRP1-82 (VHH) VHH: EVQLVESGGGLVQPGGSLRLSCAASGRTFNRYPMGWFRQAPGKEREWVSAINSNGNRYYYADSVKGRFTISADNSKNTAYLQMNSLKPEDTAVYYCAIHTSREIWGQGTLVTVSS
Out: 2

# credit: patent US20230265198A1
